// reported relative growth in counter assay per item
# Tested on: HEK293FT dCK*-only
# experiment: relative growth in counter assay (no AraC = 100%, AraC + DMSO = 0%); higher = more growth rescue independent of IKZF1
# condition details: compound concentration: 5 uM; AraC concentration: 0.3 uM; overnight pretreatment + 4 days AraC
# output: bare number, implied unit %

Some solved cases for reference:
Cc1cccc(C)c1NC(=O)C[N+](C)(C)C = 0.1
Cc1ccc(S(=O)(=O)NC(=O)NN2CCCCCC2)cc1 = 0.45
C=CC(=O)c1ccc2ccccc2c1 [JAK3-inhibitor-V] = -15.1
Cc1nnsc1C(=O)Nc1ccc(-n2nc(C(F)(F)F)cc2C(F)(F)F)cc1 = 3.65

Ask: Give its relative growth in counter assay value. Item: CCCCCCCCCCC(CO)CCCCCCCC (centres undefined) [2-Octyldodecan-1-ol]
Reply: -4.55

Ask: Now try NC(=S)N/N=C/c1ncccc1N [Triapine] .
Reply: -34.8

Ask: Now try Clc1ccc(C(Cn2ccnc2)OCc2csc3c(Cl)cccc23)c(Cl)c1 (centres undefined) [Sertaconazole nitrate] .
Reply: -1.47

Ask: Now try Cc1cc(/C=C/c2ccc3cc(N(C)C)ccc3[n+]2C)c(C)n1-c1ccccc1.Cc1cc(/C=C/c2ccc3cc(N(C)C)ccc3[n+]2C)c(C)n1-c1ccccc1 [pyrvinium] .
Reply: -34.4

Ask: Now try CCOC(=O)C1=C(C)NC(C)=C(C(=O)OC)C1c1cccc(Cl)c1Cl (centres undefined) .
Reply: -9.69

====

# Tested on: HEK293FT dCK*-only
# experiment: relative growth in counter assay (no AraC = 100%, AraC + DMSO = 0%); higher = more growth rescue independent of IKZF1
# condition details: compound concentration: 5 uM; AraC concentration: 0.3 uM; overnight pretreatment + 4 days AraC
Structures can show the parent of a compound that is named as a salt.
// reported relative growth in counter assay per item
# output: bare number, implied unit %

Some solved cases for reference:
CCCCC(CC)C/N=C(\N)N/C(N)=N/CCCCCC/N=C(\N)N/C(N)=N/CC(CC)CCCC (centres undefined) [Alexidine dihydrochloride] = -34.4
O=C1OCCN1/N=C/c1ccc([N+](=O)[O-])o1 = -3.23
CC1(S(=O)(=O)[O-])CC(=O)c2ccccc2C1=O (centres undefined) = -12.2
CCC1/C=C(\C)CC(C)CC(OC)C2OC(O)(C(=O)C(=O)N3CCCCC3C(=O)OC(/C(C)=C/C3CCC(O)C(OC)C3)C(C)C(O)CC1=O)C(C)CC2OC (centres undefined) = 22.2
CC1CC(OC(=O)C(O)c2ccccc2)CC(C)(C)C1 (centres undefined) = 0.99
O=c1c(O)c(-c2ccc(O)c(O)c2)oc2cc(O)ccc12 = -3.66
O=C(/C=C/c1ccc2ccccc2n1)c1ccncc1 = -35.1
CCc1c2c(nc3ccc(OC(=O)N4CCC(N5CCCCC5)CC4)cc13)-c1cc3c(c(=O)n1C2)COC(=O)[C@]3(O)CC [Irinotecan HCl] = -35.4

Continue with the compound presented below.
Ask: Give its relative growth in counter assay value. Item: `CC(C)(C)c1ccc(/C=C/C(=O)Nc2ccc3c(c2)OCCO3)cc1`
Reply: -1.73

====

// reported relative growth recovery per item
# Test system: HEK293FT dCK*-IKZF1
# experiment: relative growth recovery (pomalidomide 10 uM = 100%, DMSO = 0%); higher = more growth rescue (IKZF1 fusion degradation)
# condition details: compound concentration: 5 uM; AraC concentration: 0.3 uM; overnight pretreatment + 4 days AraC

Ask: Give its relative growth recovery value. Item: CNCCC(Oc1ccc(C(F)(F)F)cc1)c1ccccc1 (stereo not given)
Reply: 0.235%
